OUTCOME MEASURE: melting point

Here's what some known entries look like.
>>> reported("COc1cc(C(=O)c2nc3ccccc3[nH]2)cc(OC)c1OC")
"191 to 193 °C"
>>> reported("O=S(=O)(c1ccccc1)n1c(Cc2cccc(-c3cc4ccccc4n3S(=O)(=O)c3ccccc3)c2)cc2ccccc21")
"76 to 78 °C"
>>> reported("COc1ccc2cc(C(=O)c3cc(OC)c(OC)c(OC)c3)[nH]c2c1")
"167 to 169 °C"

Turning now to a further record.
Looking up COc1cc(C(=O)c2cc3cc(Cl)ccc3[nH]2)cc(OC)c1OC , I found its melting point recorded as 252 to 254 °C
